Reported IC50 is given for each of the following molecules.
- assay-system: biotinylated human IL-17A / AF647-labeled human IL-17RA (Homo sapiens)
- Sequence (Q16552 24-155): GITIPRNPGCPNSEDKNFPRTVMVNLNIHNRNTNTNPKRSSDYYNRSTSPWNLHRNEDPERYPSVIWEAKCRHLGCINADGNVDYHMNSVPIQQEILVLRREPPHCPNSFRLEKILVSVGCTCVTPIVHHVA
- protocol-summary: Human IL-17A×IL-17RA TR-FRET assay
- Format: binding
- protocol-conditions: IL17AA FRET/ IL17Rawt IC50, TR-FRET, biotinylated human IL-17A 5 nM, AF647-labeled human IL-17RA 30 nM
metric: IC50

1. Cc1cc[n+]([O-])c(C)c1-c1ccc(NC(=O)C(NC(=O)c2ccnn2C)C2CCC(C)CC2)cc1F (centres unmarked) ... 14 nM
2. Cc1c(-c2ccc(NC(=O)C(NC(=O)c3ccnn3C)C3CC4C(C3)C4(F)F)cc2)c(Cl)cc[n+]1[O-] (single isomer, unassigned) [Example 54b] ... 10900 nM
3. Cc1cc[n+]([O-])c(C)c1-c1ccc(NC(=O)C(NC(=O)c2ccnn2C)C2CCC(C(F)(F)F)CC2)cc1 (centres unmarked) ... 114 nM
4. Cc1c(-c2ccc(NC(=O)C(NC(=O)c3ccnn3C)C3CCC(C)CC3)cc2F)c(Cl)cc[n+]1[O-] (centres unmarked) ... 21 nM
5. CCn1nccc1C(=O)NC(C(=O)Nc1ccc(-c2c(C)cc[n+]([O-])c2C)cc1)C1CCC(C(F)(F)F)CC1 (centres unmarked) ... 46 nM
